Tested on: HCC 2998
Test: NCI tumour cell line growth inhibition, 48 h
The source made the active and inactive calls. No stated cut-off is given here; in the data, active = GI50 up to about 1.1 µM and inactive = higher.
Response enum: active, inactive

Input line: What outcome does the record of this test show for CCCc1nn(C)c(CCC(=O)N(Cc2ccccc2)Cc2ccccc2)c1CC ?
Output line: inactive

Input line: What do we get for CN(C)CCSCCO ?
Output line: inactive

Input line: What do we get for CCc1nc(N)nc(N)c1-c1ccc(Cl)cc1 [PYRIMETHAMINE] ?
Output line: inactive

Input line: What do we get for COC(=O)C12CC3CC(C1)CC(C(=O)OC)(C3)C2 ?
Output line: inactive

Input line: What do we get for COC(=O)CCC(=O)CC1CC(=O)C2CCCN12 (stereo not given) ?
Output line: inactive

Input line: What do we get for C=CC[C@H]1[C@H](O[Si](C)(C)C(C)(C)C)C=CC(=O)[C@@H]1CC(=O)N(Cc1ccccc1)Cc1ccccc1 ?
Output line: inactive

Input line: What do we get for Cc1ccccc1C(=O)Oc1ccc(Oc2ccccc2)cc1 ?
Output line: inactive

Input line: What do we get for O=c1cc(-c2ccccc2)oc2cc(O)cc(O)c12 [CHRYSIN] ?
Output line: inactive

Input line: What do we get for COC1C(C)OC(OC2CC(C)(O)Cc3cc4c(c(O)c32)C(=O)c2c(O)cc3c(c2C4=O)OC2OC3(C)C(O)C(N(C)C)C2O)C(OC)C1(C)OC (stereo not given) ?
Output line: active

Input line: What do we get for CC(=O)CC1(C)OC(N)=C(C#N)C1(C#N)C#N (stereo not given) ?
Output line: inactive

Input line: What do we get for CC[C@@H]1/C=C/C=C/C[C@H](C)[C@@H](O)[C@@H](C)C(=O)[C@H](C)[C@@H](O)[C@H](C)C(=O)[C@H](C)[C@@H](O)[C@H](C)/C=C/C(=O)O[C@H]2[C@@H](C)[C@@H](CC1)O[C@@]1(CC[C@@H](C)[C@@H](CC(C)O)O1)[C@@H]2C (stereo not given in full) ?
Output line: inactive

Input line: What do we get for Nc1nn2c(=O)c3ccccc3nc2s1 ?
Output line: inactive

Input line: What do we get for Cc1ccc2[nH]c3c(c2c1)C1CCC(C(C)(C)C)CC1C1C(=O)N(c2ccc4c(c2)OCO4)C(=O)C31 (stereo not given) ?
Output line: inactive

Input line: What do we get for O=[N+]([O-])c1cc(Cl)ccc1Sc1ccccc1 ?
Output line: inactive

Input line: What do we get for O=C(/C=C/c1c(O)ccc2ccccc12)c1ccc2ccccc2c1 ?
Output line: inactive

Input line: What do we get for N#C/C(=C\c1ccc(C(O)P(=O)(O)O)cc1)C(N)=O (stereo not given) ?
Output line: inactive

Input line: What do we get for COc1cccc(-c2cc(=O)c3cc(C)c(C)c(C(=O)O)c3o2)c1 ?
Output line: inactive

Input line: What do we get for COc1cc(CC2c3cc(OC)c(OC)cc3CCN2C)c(Oc2cc3c(cc2OC)-c2c(O)c(OC)cc4c2C(C3)N(C)CC4)cc1OC (stereo not given) ?
Output line: inactive

Input line: What do we get for CN(C)c1cccc2c(S(=O)(=O)NCCCNCCN)cccc12 ?
Output line: inactive

Input line: What do we get for O=C(CC1SC(Nc2ccccc2Cl)=NC1=O)Nc1ccc(Cl)cc1Cl (stereo not given) ?
Output line: inactive
